Each entry below carries its recorded shrunken log2 fold change.
system: Escherichia coli TOP10; assay: shrunken log2 fold change of peptide-encoding DNA abundance (4.5 h post-induction vs induction); higher = less antimicrobial activity (less host growth inhibition); conditions: time post-induction: 4.5 h; library: site-saturation at positions 5, 18, 19, 20;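 note: peptides expressed intracellularly from a pBAD plasmid library in pooled LB shake-flask culture, induced with 0.3% L-arabinose, DNA abundance read by NGS, three biological replicates, DESeq2 with apeglm shrinkage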
Keep it simple and answer with nothing but the number.

> print(dat)
            sequence.entry  test.result
1  RRIRERPPRLPRPRPRPHHPPRP       -0.197
2  RRIRLRPPRLPRPRPRPHIAPRP       -0.205
3  RRIRDRPPRLPRPRPRPYTAPRP       0.0362
4  RRIRIRPPRLPRPRPRPRKDPRP       -0.387
5  RRIRTRPPRLPRPRPRPFAWPRP      -0.0156

Query :: Output shrunken log2 fold change of RRIRGRPPRLPRPRPRPIELPRP
Result :: -0.0084

Query :: Output shrunken log2 fold change of RRIRFRPPRLPRPRPRPMWYPRP
Result :: -0.0081

Query :: Output shrunken log2 fold change of RRIRQRPPRLPRPRPRPITFPRP
Result :: -0.11

Query :: Output shrunken log2 fold change of RRIRFRPPRLPRPRPRPLFPPRP
Result :: -0.23

Query :: Output shrunken log2 fold change of RRIRRRPPRLPRPRPRPCWAPRP
Result :: 0.153
